All values here come from BindingDB's records for doi:10.1021/jm031016d.

molecular target: Glycogen synthase kinase-3 alpha/beta (Sus scrofa); test: Kinase activities were assayed in buffers containing substrate, enzyme, and inhibitor at 30 °C in the presence of 15 uM ATP/ [gamma-32P] ATP. 32P incorporation was measured with a scintillation counter. The IC50 is the inhibitor concentration, which inhibits 50% of kinase activity that catalyzes the transfer of the terminal phosphate from 32P l
just bin them by IC50: low value = under 30 nM, medium value = from 30 nM up to 100 nM, high value = 100 nM and over

A selection of reference data follows.
Molecule: O=C1Nc2cccc(Cl)c2/C1=C1/Nc2ccccc2C1=O
Label value: high value

Molecule: O=C1Nc2cc(Br)ccc2/C1=C1/Nc2cc(Br)ccc2C1=O
Label value: high value

Molecule: CN1C(=O)/C(=C2\Nc3ccccc3C2=O)c2ccc(Br)cc21
Label value: high value

Molecule: O=Nc1c(C2C(=O)Nc3cc(F)ccc32)[nH]c2ccccc12 (stereo not given)
Label value: high value

Molecule: CN1C(=O)C(c2[nH]c3ccccc3c2N=O)c2ccccc21 (stereo not given)
Label value: high value

Molecule: O=Nc1c(C2C(=O)Nc3cc(Cl)ccc32)[nH]c2ccccc12 (stereo not given)
Label value: low value

Now take the following molecule into account.
Input O=C1Nc2cc(Cl)ccc2/C1=C1/Nc2ccccc2C1=O ; output its category
high value
